Attribution: ChEMBL document CHEMBL2086389

Some compounds, each annotated with its measured pIC50.
Biological target: Epidermal growth factor receptor (Homo sapiens, UniProt P00533)
Sequence (P00533 whole entry): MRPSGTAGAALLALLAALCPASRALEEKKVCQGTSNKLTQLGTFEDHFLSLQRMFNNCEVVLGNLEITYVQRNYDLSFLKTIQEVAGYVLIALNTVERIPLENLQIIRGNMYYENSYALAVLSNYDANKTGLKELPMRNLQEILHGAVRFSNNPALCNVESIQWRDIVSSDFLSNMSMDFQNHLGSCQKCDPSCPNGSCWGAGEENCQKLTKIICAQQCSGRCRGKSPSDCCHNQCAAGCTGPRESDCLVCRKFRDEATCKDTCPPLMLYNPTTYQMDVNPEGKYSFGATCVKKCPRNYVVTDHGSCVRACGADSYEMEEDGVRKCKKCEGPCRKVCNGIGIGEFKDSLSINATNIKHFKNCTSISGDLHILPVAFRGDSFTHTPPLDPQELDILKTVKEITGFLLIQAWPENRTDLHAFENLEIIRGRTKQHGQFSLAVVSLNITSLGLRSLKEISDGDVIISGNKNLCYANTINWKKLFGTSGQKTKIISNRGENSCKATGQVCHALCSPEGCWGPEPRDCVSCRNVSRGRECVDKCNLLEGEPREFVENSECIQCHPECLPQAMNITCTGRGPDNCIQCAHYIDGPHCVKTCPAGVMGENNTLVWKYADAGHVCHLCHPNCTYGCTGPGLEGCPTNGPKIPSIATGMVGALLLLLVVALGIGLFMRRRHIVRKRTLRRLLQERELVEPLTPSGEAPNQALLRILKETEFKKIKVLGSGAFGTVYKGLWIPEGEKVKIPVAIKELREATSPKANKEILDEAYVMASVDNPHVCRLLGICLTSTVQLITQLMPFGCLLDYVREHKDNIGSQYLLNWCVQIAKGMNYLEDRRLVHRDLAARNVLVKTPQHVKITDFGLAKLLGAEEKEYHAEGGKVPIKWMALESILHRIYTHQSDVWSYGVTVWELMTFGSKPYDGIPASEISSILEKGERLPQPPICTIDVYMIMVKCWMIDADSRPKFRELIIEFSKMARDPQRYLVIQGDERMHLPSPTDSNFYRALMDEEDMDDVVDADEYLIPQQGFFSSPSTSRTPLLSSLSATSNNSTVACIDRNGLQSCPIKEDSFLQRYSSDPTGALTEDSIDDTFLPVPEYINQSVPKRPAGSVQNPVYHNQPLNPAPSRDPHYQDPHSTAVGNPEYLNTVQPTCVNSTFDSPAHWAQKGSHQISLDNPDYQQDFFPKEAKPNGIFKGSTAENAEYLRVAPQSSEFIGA
Assay: Inhibition of EGFR using GST-Crk as substrate assessed as phosphorylated Crk level after 20 mins by SDS-PAGE analysis
pIC50: −log10 of the molar value.
measured_quantity: pIC50

compound	measured_quantity	measured_number
Brc1cccc(Nc2ncnc3cc4c(cc23)OCCOCOCOCCO4)c1	pIC50	8.30
Fc1ccc(Nc2ncnc3cc4c(cc23)OCCOCCOCCO4)cc1Cl	pIC50	8.70
Brc1cccc(Nc2ncnc3cc4c(cc23)Oc2ccccc2O4)c1	pIC50	6.92
Brc1cccc(Nc2ncnc3cc4c(cc23)OCCOCCOCCO4)c1	pIC50	8.30
Cc1ccc(S(=O)(=O)N2CCOc3cc4ncnc(Nc5cccc(Br)c5)c4cc3OCC2)cc1	pIC50	6.82
Brc1cccc(Nc2ncnc3cc4c(cc23)OCCCSCCCO4)c1	pIC50	8.10
Brc1cccc(Nc2ncnc3cc4c(cc23)OCCOCCO4)c1	pIC50	7.26
Brc1cccc(Nc2ncnc3cc4c(cc23)OCCCO4)c1	pIC50	7.07
Brc1cccc(Nc2ncnc3cc4c(cc23)OCCSCCO4)c1	pIC50	8.15
Clc1cccc(Nc2ncnc3cc4c(cc23)OCCOCCOCCO4)c1	pIC50	8.70
C#Cc1cccc(Nc2ncnc3cc4c(cc23)OCCOCCOCCO4)c1 [ICOTINIB]	pIC50	8.70

---

Test: Cmax in rat at 35 mg/kg, po
Format: ADME, organism-based
Design: dose 35 mg/kg, route oral
Settings: in vivo

smiles_entry	Cmax (ng/mL)
C#Cc1cccc(Nc2ncnc3cc4c(cc23)OCCOCCOCCO4)c1	6120

---

Assay: Oral bioavailability in rat at 35 mg/kg
Assay type: ADME, organism-based
Settings: in vivo

smiles_entry	output_unit	bioavailability
C#Cc1cccc(Nc2ncnc3cc4c(cc23)OCCOCCOCCO4)c1	%	52

---

Target: Epidermal growth factor receptor (Homo sapiens, UniProt P00533)
Test: Inhibition of EGFR-mediated intracellular tyrosine phosphorylation in EGF-stimulated human A431 cells after 2.5 hrs by SDS-PAGE analysis
Type: cell-based, A-431
pIC50: −log10 of the molar value.
measured_quantity: pIC50

smiles_entry	value_prefix	measured_number
C#Cc1cccc(Nc2ncnc3cc4c(cc23)OCCOCCOCCO4)c1	=	7.35
Brc1cccc(Nc2ncnc3cc4c(cc23)OCCOCOCOCCO4)c1	=	7.30
Brc1cccc(Nc2ncnc3cc4c(cc23)OCCCSCCCO4)c1	<	6.00
Brc1cccc(Nc2ncnc3cc4c(cc23)OCCOCCOCCO4)c1	=	7.30
Brc1cccc(Nc2ncnc3cc4c(cc23)OCCSCCO4)c1	<	6.00
Clc1cccc(Nc2ncnc3cc4c(cc23)OCCOCCOCCO4)c1	=	7.26
Fc1ccc(Nc2ncnc3cc4c(cc23)OCCOCCOCCO4)cc1Cl	=	7.35

---

Test: Volume of distribution at steady state in rat at 35 mg/kg, iv and 35 mg/kg, po
Format: ADME, organism-based
Conditions: in vivo, read-out: Vdss
measured_quantity: Vd (L/kg)

smiles_entry	measured_number
C#Cc1cccc(Nc2ncnc3cc4c(cc23)OCCOCCOCCO4)c1	3.9
